tested on: SARS-CoV-2; assay: microbe, parasite or virus in culture; details: Severe acute respiratory syndrome coronavirus 2, Vero C1008, 48 h
Listing of entries alongside the reported IC50.

[[record]]
cpd_smiles = "O=C1NC(=O)C(c2ccccc2)(c2ccccc2)N1"
result = "> 20 µM"

[[record]]
cpd_smiles = "CN[C@@H]1[C@H](O)[C@H](NC)[C@H]2O[C@@]3(O)C(=O)C[C@@H](C)O[C@H]3O[C@@H]2[C@H]1O"
result = "> 20 µM"

[[record]]
cpd_smiles = "CSC[C@H](NC(=O)COc1cccc2cnccc12)C(=O)N[C@@H](Cc1ccccc1)[C@H](O)C(=O)N1CSC[C@H]1C(=O)NC(C)(C)C"
result = "> 20 µM"


// moving on: another record for IC50
Query COc1cc2c3cc1Oc1cc(ccc1O)C[C@@H]1c4c(cc(OC)c(O)c4Oc4ccc(cc4)C[C@H]3N(C)CC2)CCN1C yields IC50 of > 10 µM

Values compiled from ChEMBL document CHEMBL4651402.
